- targetOrSystem: dopamine D2 receptor (Rattus norvegicus, UniProt P61169)
- Construct: the receptor fraction prepared from the corpus striatum was molten and suspended; from tissue; host or cells: corpus striatum of SD rats (membrane fraction)
- Sequence (P61169 whole entry): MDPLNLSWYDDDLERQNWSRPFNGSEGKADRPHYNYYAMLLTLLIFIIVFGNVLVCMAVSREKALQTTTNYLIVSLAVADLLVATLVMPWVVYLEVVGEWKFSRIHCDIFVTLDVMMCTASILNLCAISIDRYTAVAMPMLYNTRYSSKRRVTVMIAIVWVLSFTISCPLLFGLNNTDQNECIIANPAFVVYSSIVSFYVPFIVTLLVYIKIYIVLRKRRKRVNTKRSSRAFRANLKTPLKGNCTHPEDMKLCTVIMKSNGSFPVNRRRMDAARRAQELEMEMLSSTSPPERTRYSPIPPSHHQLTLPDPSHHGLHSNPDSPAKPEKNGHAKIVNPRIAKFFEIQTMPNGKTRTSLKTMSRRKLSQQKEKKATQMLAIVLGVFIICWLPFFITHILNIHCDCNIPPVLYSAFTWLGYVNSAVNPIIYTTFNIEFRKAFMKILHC
- assayRemarks: dopamine D2 receptor binding test ([3H] Spiperone Binding Test)
- Set-up: species or system SD rats
- runParameters: 1 nM [3H] Spiperone, rat corpus striatum, room temperature, 60 minutes; read-out: Ki value, dopamine D2 receptor
Field: pKi. Provide a value for each of the molecules that follow.
// pKi is dimensionless: -log10 of concentration (M)

Request: Given the entry CCN1CCN(c2cc(-c3ccccc3)c(OC)c(C(C)(C)O)c2)CC1 , what pKi was observed with dopamine D2 receptor (Rattus norvegicus, UniProt P61169)?
Result: 6.09

Request: State its pKi on dopamine D2 receptor (Rattus norvegicus, UniProt P61169): CCC(F)c1cc(N2CCN(CCO)CC2)cc(-c2ccccc2Cl)c1Cl (stereo not drawn)
Result: 8.14

Request: Find the measured pKi: item CCCNc1cc(N2CCN(CC)CC2)cc(-c2ccccc2)c1OC , target or system dopamine D2 receptor (Rattus norvegicus, UniProt P61169).
Result: 7.30

Request: pKi, test system dopamine D2 receptor (Rattus norvegicus, UniProt P61169), entry CCN1CCN(c2cc(-c3ccccc3)c(OC)c(S(=O)(=O)N3CCCC3)c2)CC1
Result: 7.38

Request: Lab request: please report pKi under test system dopamine D2 receptor (Rattus norvegicus, UniProt P61169) for COc1c(C(=O)Cc2ccccc2)cc(N2CCN(CCO)CC2)cc1-c1ccccc1
Result: 7.34

Request: Lab note: need pKi for CCC(F)c1cc(N2CCN(C)CC2)cc(-c2ccccc2C#N)c1Cl (stereo not drawn) on dopamine D2 receptor (Rattus norvegicus, UniProt P61169), anyone have it?
Result: 8.55

Request: // lookup pKi | system=dopamine D2 receptor (Rattus norvegicus, UniProt P61169) | key= CCC(F)c1cc(N2CCN(CCc3ccccn3)CC2)cc(-c2ccccc2C)c1Cl (stereo not drawn)
Result: 7.84

Request: Lab note: need pKi for CCS(=O)(=O)c1cc(N2CCN(CCc3ccccn3)CC2)cc(-c2ccc(F)cc2)c1OC on dopamine D2 receptor (Rattus norvegicus, UniProt P61169), anyone have it?
Result: 7.92

Request: For dopamine D2 receptor (Rattus norvegicus, UniProt P61169), provide pKi of CCC(O)c1cc(N2CCN(CC)CC2)cc(-c2ccccc2)c1OC (stereo not drawn) please.
Result: 6.31

Request: Provide the documented pKi with dopamine D2 receptor (Rattus norvegicus, UniProt P61169) as the system for C/C=C/c1cc(N2CCN(CC)CC2)cc(-c2ccccc2)c1OC
Result: 7.08

Request: Form: Entry = C=CCOCc1cc(N2CCN(CC)CC2)cc(-c2ccccc2C)c1Cl | System = dopamine D2 receptor (Rattus norvegicus, UniProt P61169) | pKi = ____
Result: 7.53

Request: Please state recorded pKi (tested on dopamine D2 receptor (Rattus norvegicus, UniProt P61169)) of CCCc1cc(N2CCN(CC)CC2)cc(-c2ccccc2F)c1OC
Result: 7.35

Request: Fill in the recorded pKi for this molecule, with dopamine D2 receptor (Rattus norvegicus, UniProt P61169) as test system: C=CCCC(F)c1cc(N2CCN(CC)CC2)cc(-c2ccccc2)c1OC (stereo not drawn)
Result: 8.01

Request: I'm curious: which pKi was measured for CCN1CCN(c2cc(-c3ccc(F)cc3)c(OC)cc2C(C)C)CC1 tested on dopamine D2 receptor (Rattus norvegicus, UniProt P61169)?
Result: 7.55

Request: Give the reported pKi for CCCC(F)c1cc(N2CCN(CC)CC2)cc(-c2ccccc2Cl)c1Cl (stereo not drawn) (system: dopamine D2 receptor (Rattus norvegicus, UniProt P61169)).
Result: 8.22

Request: Hi! What's the reported pKi for CCN1CCN(c2cc(-c3ccccc3)c(OC)c(C(F)Cc3ccncc3)c2)CC1 (stereo not drawn) on dopamine D2 receptor (Rattus norvegicus, UniProt P61169)?
Result: 7.96

Request: Query for dopamine D2 receptor (Rattus norvegicus, UniProt P61169): what pKi does the record show for CCN1CCN(c2cc(CCCOCOC)c(OC)c(-c3ccccc3)c2)CC1 ?
Result: 6.77

Request: Lab note: need pKi for CCCNS(=O)(=O)c1cc(N2CCN(CC)CC2)cc(-c2ccccc2C)c1Cl on dopamine D2 receptor (Rattus norvegicus, UniProt P61169), anyone have it?
Result: 8.01

Entry source: patent US6281214A
